Source listed as PubChem BioAssay AID376.

TARGET ENTITY: Voltage-gated inwardly rectifying potassium channel KCNH2 (Homo sapiens)
EXPERIMENT DESCRIPTION: KCNH2 potassium channel function modulators, cell-based (AID 376);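 also: 0% = buffer alone and 100% = reference blocker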
EXPERIMENTAL PARAMETERS: hERG-expressing cells, channel activity single-concentration screen; concentration not given here
Among all 2,000 compounds or so, about 250 (12%) were called active. This excerpt belongs to a sample that is enriched for actives.
In plain terms, low hERG blockade, meaning strictly below 10%, gives 1 (yes), and everything else gives 0 (no).

Q) # check: hERG blockade < 10% for NN(CC(=O)O)CC(=O)O
A) 1 (yes)

Q) # check: hERG blockade < 10% for CC(CCCC1SCC2NC(=O)NC21)C(=O)O (centres undefined)
A) 1 (yes)

Q) # check: hERG blockade < 10% for O=C(O)C(Sc1ccc(Cl)cc1)Sc1ccc(Cl)cc1
A) 1 (yes)

Q) # check: hERG blockade < 10% for Cc1cc2c(SCc3ccccc3Cl)nc(N)nc2nc1C
A) 1 (yes)

Q) # check: hERG blockade < 10% for O=C1CSC(=S)N1N=Cc1ccc(Cl)c([N+](=O)[O-])c1
A) 1 (yes)

Q) # check: hERG blockade < 10% for CC1=NCC[N+]1(CCc1ccccc1)Cc1ccccc1 (centres undefined)
A) 0 (no)

Q) # check: hERG blockade < 10% for COc1cc2c3cc1Oc1cc(ccc1O)CC1c4c(cc(OC)c(O)c4Oc4ccc(cc4)CC3[N+](C)(C)CC2)CC[N+]1(C)C (centres undefined)
A) 0 (no)

Q) # check: hERG blockade < 10% for CS(=O)(=O)Nc1ccc(Nc2c3ccccc3nc3ccccc23)cc1
A) 0 (no)

Q) # check: hERG blockade < 10% for Nc1ccn(C2OC(CO)C3[O][Sn]([c]4ccccc4)([c]4ccccc4)[O]C32)c(=O)n1 (centres undefined)
A) 1 (yes)

Q) # check: hERG blockade < 10% for CC1CCN(CC(=O)N2c3ccccc3Sc3cc4ccccc4cc32)CC1
A) 0 (no)

Q) # check: hERG blockade < 10% for O=[N+]([O-])c1cccc(C=NNc2ccc3ccccc3n2)c1O
A) 0 (no)

Q) # check: hERG blockade < 10% for c1cc(-c2sc(-c3ccncc3)c(-c3ccncc3)c2-c2ccncc2)ccn1
A) 0 (no)

Q) # check: hERG blockade < 10% for CC(O)(CNS(=O)(=O)c1ccccc1)c1ccccc1 (centres undefined)
A) 1 (yes)

Q) # check: hERG blockade < 10% for CS(=O)(=O)N(CC(=O)O)Cc1ccccc1
A) 0 (no)

Q) # check: hERG blockade < 10% for S=C(CSc1ccccc1)Nc1cccc2ccccc12
A) 1 (yes)

Q) # check: hERG blockade < 10% for Cc1ccc(S(=O)(=O)N=Nc2c(O)[nH]c3cc(O)c(C(=O)O)cc23)cc1
A) 1 (yes)

Q) # check: hERG blockade < 10% for [O-][N+](CCO)(CCO)c1ncnc2nc[nH]c12
A) 0 (no)

Q) # check: hERG blockade < 10% for Cc1cc(OCC(=O)O)c(Cl)cc1Cl
A) 1 (yes)

Q) # check: hERG blockade < 10% for CC(=NNc1ccc2ccccc2n1)c1ccccc1O
A) 1 (yes)

Q) # check: hERG blockade < 10% for CC(C)Oc1cc(O)c2c(c1)OCC=C2CCC(=O)O
A) 0 (no)

Q) # check: hERG blockade < 10% for CC(=O)Nc1ccc2c(c1)C(=Cc1ccc([N+](C)(C)C)cc1)c1ccccc1-2
A) 0 (no)

Q) # check: hERG blockade < 10% for CN(N=Cc1ccccc1O)c1ccc2ccccc2n1
A) 1 (yes)

Q) # check: hERG blockade < 10% for O=C(O)CCSCc1ccccc1
A) 1 (yes)

Q) # check: hERG blockade < 10% for CN(CCC(=O)O)S(=O)(=O)c1ccccc1
A) 1 (yes)

Q) # check: hERG blockade < 10% for CC(CCC(C)=NO)=NO
A) 1 (yes)

Q) # check: hERG blockade < 10% for Oc1ccc(Cl)cc1Sc1cc(Cl)ccc1O
A) 0 (no)

Q) # check: hERG blockade < 10% for C1CCN(CCC2CCCCN2)CC1 (centres undefined)
A) 1 (yes)

Q) # check: hERG blockade < 10% for N=c1ccn2c(n1)OC1C(OP(=O)(O)O)C(CO)OC12 (centres undefined)
A) 1 (yes)

Q) # check: hERG blockade < 10% for N#CCCSC(=S)C1CCCC1=N (centres undefined)
A) 0 (no)

Q) # check: hERG blockade < 10% for O=C(Nc1cccc2ccccc12)c1ccccc1
A) 1 (yes)

Q) # check: hERG blockade < 10% for Cc1cc(Cl)nc(NC(=O)CSc2ccc(Cl)cc2)n1
A) 1 (yes)

Q) # check: hERG blockade < 10% for NC(N)=NN=Cc1ccc(C2CCNCC2)cc1
A) 1 (yes)

Q) # check: hERG blockade < 10% for O=S(=O)(c1ccc2ccccc2c1)N1CCN(S(=O)(=O)c2ccc3ccccc3c2)CC1
A) 1 (yes)

Q) # check: hERG blockade < 10% for Nc1ccn(C2OC(COP(=O)(O)O)C(O)C2O)c(=O)n1 (centres undefined)
A) 1 (yes)

Q) # check: hERG blockade < 10% for CC1(C(=O)O)CCCC1C(=O)O (centres undefined)
A) 1 (yes)

Q) # check: hERG blockade < 10% for Cc1cc(C(C)(C)C)cc(CNC2CCCCC2)c1O
A) 1 (yes)

Q) # check: hERG blockade < 10% for Cc1ccc(C(O)c2cnc(C)n2Cc2ccccc2)cc1 (centres undefined)
A) 1 (yes)

Q) # check: hERG blockade < 10% for O=C(O)C(CCc1ccccn1)c1ccccc1 (centres undefined)
A) 1 (yes)

Q) # check: hERG blockade < 10% for [Cu+2].[NH-]C(CC(=O)O)C(=O)O.[NH-]C(CC(=O)O)C(=O)O (centres undefined)
A) 0 (no)

Q) # check: hERG blockade < 10% for Cc1nc(N)nc2ccccc12
A) 1 (yes)

Q) # check: hERG blockade < 10% for CC(=O)CC(=O)Nc1ccc2ccccc2c1
A) 1 (yes)

Q) # check: hERG blockade < 10% for COc1ccc(CC2C(=O)NC(C)C(=O)N(C)C3Cc4ccc(cc4)Oc4cc(ccc4O)CC(C(=O)NC(C)C(=O)NC(C)C(=O)N2C)N(C)C3=O)cc1 (centres undefined)
A) 1 (yes)

Q) # check: hERG blockade < 10% for NC(N)=NN=Cc1ccc(O)c(C(=O)O)c1
A) 1 (yes)

Q) # check: hERG blockade < 10% for O=C(NN=Cc1ccc2c(c1)CCC2)c1ccccc1O
A) 1 (yes)

Q) # check: hERG blockade < 10% for CN(C)CCCN1CCC2(CCC(C(C)(C)C)CC2)CC1
A) 0 (no)

Q) # check: hERG blockade < 10% for O=C(O)c1ccc(C(=O)O)c(C(=O)O)c1.[NH-]C1CCCCC1[NH-].[Pt+2]
A) 0 (no)

Q) # check: hERG blockade < 10% for c1ccc2sc(SCSc3nc4ccccc4s3)nc2c1
A) 1 (yes)

Q) # check: hERG blockade < 10% for O=C(O)CC(=Cc1ccccc1)C(=O)O
A) 1 (yes)

Q) # check: hERG blockade < 10% for O=C(O)CC[P+](c1ccccc1)(c1ccccc1)c1ccccc1
A) 0 (no)
